All figures here come from the supplement of paper PMC10567573.

B1: IKZF1 (parent)
chain: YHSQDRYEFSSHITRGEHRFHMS

- Variants of: B1
- EXPERIMENT_DESCRIPTION: protein stability index of a GFP-peptide fusion (GPS, HEK-293T) (PSI 1-6); higher = more stable;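 further: lentivirally expressed fusions sorted by FACS into six bins by GFP to DsRed ratio, PSI derived from sequencing read proportions per bin multiplied by bin number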
- APPLIED_CONDITIONS: c terminus: native
MEASURE_NAME: protein stability index

>>> value_observed("H18V")
1.68
>>> value_observed("G16Y")
4.64
>>> value_observed("H18M")
2.75
>>> value_observed("F20L")
2.37
>>> value_observed("H2T")
3.16
>>> value_observed("Q4V")
2.23
>>> value_observed("S23P")
2
>>> value_observed("R6L")
2.98
>>> value_observed("H2R")
3.37
>>> value_observed("M22L")
1.4
>>> value_observed("S3N")
1.61
>>> value_observed("H2E")
3.98
>>> value_observed("R15W")
1.82
>>> value_observed("E17T")
1.4
>>> value_observed("R6I")
2.25
>>> value_observed("E17N")
2.92
>>> value_observed("E8I")
2.78
>>> value_observed("R15K")
1.8
>>> value_observed("H2N")
3.72
>>> value_observed("H21M")
1.6
>>> value_observed("F9W")
3.1
>>> value_observed("Q4L")
2.08
>>> value_observed("F20C")
2.12
>>> value_observed("H18K")
2.22
>>> value_observed("H2A")
2.5
>>> value_observed("M22F")
1.53
>>> value_observed("Y1Q")
3.99
>>> value_observed("Y7M")
1.95
>>> value_observed("H2D")
3.76
>>> value_observed("F9Q")
1.17
>>> value_observed("Y7N")
1.72
>>> value_observed("G16C")
2.74
>>> value_observed("H2L")
2.02
>>> value_observed("R19T")
1.92
>>> value_observed("S3P")
2.5
>>> value_observed("S3H")
2.14
>>> value_observed("M22S")
2.03
>>> value_observed("Q4M")
1.77
>>> value_observed("H21G")
2.11
>>> value_observed("Y1M")
3.5
>>> value_observed("F20Y")
1.75
>>> value_observed("I13Y")
1.49
>>> value_observed("F20D")
1.76
>>> value_observed("Q4W")
2.22
>>> value_observed("E8F")
3.7
>>> value_observed("I13A")
1.85
>>> value_observed("R15T")
2.9
>>> value_observed("T14L")
2.23
>>> value_observed("E17G")
1.56
>>> value_observed("Y7F")
2.78
>>> value_observed("T14V")
2.04
>>> value_observed("G16K")
2.27
>>> value_observed("T14N")
2.24
>>> value_observed("E17V")
1.68
>>> value_observed("E17L")
2.11
>>> value_observed("G16N")
2.04
